For each entry below, report its MTD value.
experiment: Toxicity in SCID mouse assessed as maximum tolerated dose; assay type: organism-based; conditions: in vivo
Please give a number only; it is taken to be in mg/kg.

Exercise: Record request: MTD value, item C=C(C)C[C@H](OC)[C@H](O)C(=O)N[C@@H](OC)C1C[C@@H](O)C(C)(C)[C@@H](C[C@H](O)[C@@H](C)[C@@H]2Cc3c(C)c(O)cc(O)c3C(=O)O2)O1 (some centres not stated) [IRCINIASTATIN]
Key: 0.125

Exercise: Given C=CC/C=C\Cc1csc(C(C)(C)[C@H](O)C/C=C\C(=C)CCNC(=O)OC)n1 [MYCOTHIAZOLE] , state its recorded MTD.
Key: 3

----------
test system: PC-3; assay: Cytotoxicity against human PC3 cells; type: functional, cell-based
attribute.measured: IC50

Exercise: Data request, read-out IC50, for C=C(C)C[C@H](OC)[C@H](O)C(=O)N[C@@H](OC)C1C[C@@H](O)C(C)(C)[C@@H](C[C@H](O)[C@@H](C)[C@@H]2Cc3c(C)c(O)cc(O)c3C(=O)O2)O1 (stereo partly specified)
Key: 1 nM

----------
pIC50: −log10 of the molar value.
The following are reported pIC50 results, target or system UniProtKB P50579.
Sequence (P50579 whole entry): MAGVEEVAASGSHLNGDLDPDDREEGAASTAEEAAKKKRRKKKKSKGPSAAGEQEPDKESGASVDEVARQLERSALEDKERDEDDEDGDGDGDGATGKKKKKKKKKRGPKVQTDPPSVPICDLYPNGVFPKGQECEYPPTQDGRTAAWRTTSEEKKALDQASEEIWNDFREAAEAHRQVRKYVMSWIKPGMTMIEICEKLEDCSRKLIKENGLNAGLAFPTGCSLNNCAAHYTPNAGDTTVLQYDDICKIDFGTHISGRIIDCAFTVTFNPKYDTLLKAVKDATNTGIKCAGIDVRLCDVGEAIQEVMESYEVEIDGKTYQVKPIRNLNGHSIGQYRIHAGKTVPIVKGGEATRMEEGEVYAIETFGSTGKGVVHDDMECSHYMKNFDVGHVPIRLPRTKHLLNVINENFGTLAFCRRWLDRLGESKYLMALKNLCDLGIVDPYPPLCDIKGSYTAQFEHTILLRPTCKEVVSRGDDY

Exercise: # lookup: pIC50 of CCC(C)CCCCCCCCCCC(=O)O[C@H]1CC[C@H](NC(=O)[C@H](OC)[C@H](O)[C@@H](O)[C@H](O)/C=C/C(C)C)C(=O)N(C)C1 (stereo partly drawn) [BENGAMIDE O]
Key: < 4.30

Exercise: pIC50 for "CO[C@@H]1[C@H](OC(=O)/C=C/C=C/C=C/C=C/C(=O)O)CC[C@]2(CO2)[C@H]1[C@@]1(C)O[C@@H]1CC=C(C)C" ?
Key: 7.52

Exercise: Recorded pIC50 for "CC(C)(C)OC(=O)Nc1cccnc1C(=O)Nc1nccs1" , please?
Key: < 3.52
